test system: HEK293; test: Antiproliferative activity against human HEK293 cells by MTT assay; format: cell-based
Hi there, I'd appreciate the recorded IC50 for every entry that follows.
Provide the reading as a plain figure in µM.

Q: State the recorded IC50 for this entry: CNC(=O)c1oc2nc(-c3cccs3)cc(C(F)(F)F)c2c1N
Ans: 75

Q: Same question, Cc1nc2c(oc3nc(-c4cccs4)cc(C(F)(F)F)c32)c(=O)n1C1CCCC1 this time
Ans: 124

Q: Same question, CCn1cnc2c(oc3nc(-c4ccccc4)cc(C(F)(F)F)c32)c1=O this time
Ans: 121

Q: Same question, CCCn1c(C)nc2c(oc3nc(-c4ccccc4)cc(C(F)(F)F)c32)c1=O this time
Ans: 52
